- tested system: CXCR4 receptor (human, UniProt P61073 1-352)
- Sequence (P61073 whole entry): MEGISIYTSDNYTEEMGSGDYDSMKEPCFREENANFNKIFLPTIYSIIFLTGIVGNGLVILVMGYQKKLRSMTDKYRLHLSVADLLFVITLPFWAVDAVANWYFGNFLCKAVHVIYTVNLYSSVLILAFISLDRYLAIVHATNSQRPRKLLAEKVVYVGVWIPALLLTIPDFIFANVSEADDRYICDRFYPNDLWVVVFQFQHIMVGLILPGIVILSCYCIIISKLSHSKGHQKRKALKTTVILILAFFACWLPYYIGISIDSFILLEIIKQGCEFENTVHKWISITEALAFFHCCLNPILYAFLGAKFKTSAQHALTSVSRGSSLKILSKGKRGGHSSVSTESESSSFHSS
- protocol notes: cell-based or functional assay
Ends that are not written are not given here.
recorded metric: Peak Ratio, CHTX, CEM, 1.0 uM
Just the number, please.

In the examples that follow, each entry is paired with its recorded Peak Ratio, CHTX, CEM, 1.0 uM.
{"columns": ["binder", "Peak Ratio, CHTX, CEM, 1.0 uM"],
 "data": [
  ["MGYQKKLRSMTD-NH2 (not fully specified (N-terminus); also: further groups not given here) [CXCR4 i1 loop compound 33]", 1],
  ["MGYQKKLRSMTDKYRI-NH2 (not fully specified (N-terminus); also: further groups not given here) [CXCR4 i1 loop compound 48]", 5]
]}

# input Given the binder MGYQKKLRSMTDKYRLHL-NH2 (not fully specified (N-terminus); also: N-terminal T-L: Myr, dual lipid backbone) [CXCR4 i1 loop compound 54] , what is its reported Peak Ratio, CHTX, CEM, 1.0 uM?
# output 1
